# Assay system: recombinant human ETA receptors (Homo sapiens)
# Sequence (P25101 21-427): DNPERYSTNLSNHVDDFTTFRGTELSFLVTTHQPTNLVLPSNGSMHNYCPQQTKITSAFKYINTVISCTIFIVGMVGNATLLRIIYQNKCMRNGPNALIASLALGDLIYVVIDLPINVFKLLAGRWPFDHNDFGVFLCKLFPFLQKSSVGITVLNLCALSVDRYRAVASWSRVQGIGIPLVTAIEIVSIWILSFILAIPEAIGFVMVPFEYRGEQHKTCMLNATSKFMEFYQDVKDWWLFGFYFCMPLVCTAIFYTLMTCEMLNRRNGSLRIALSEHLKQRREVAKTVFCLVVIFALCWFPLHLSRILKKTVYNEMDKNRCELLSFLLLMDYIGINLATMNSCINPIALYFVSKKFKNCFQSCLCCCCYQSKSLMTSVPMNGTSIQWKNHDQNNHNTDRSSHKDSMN
# Method notes: Inhibition of endothelin binding to recombinant human ETA receptors expressed in baculovirus-infected insect cells (125I-endothelin)
# Test parameters: 125I-endothelin 20 pM; baculovirus-infected insect cell membranes; 20° C. for 2 hours or 4° C. for 24 hours
pIC50: −log10 of the molar value.
Metric: pIC50

COc1ccccc1Oc1c(NS(=O)(=O)c2ccc(C)cn2)nc(-c2ccnc(C(=O)OCCO)c2)nc1OC :: ≥ 7.30
COc1ccccc1Oc1c(NS(=O)(=O)c2ccc(C)cn2)nc(-c2ccnc(C(=N)NO)c2)nc1OC :: ≥ 7.30

Consider now this further molecule.
Give the measured pIC50 of CNC(=O)c1cc(-c2nc(NS(=O)(=O)c3ccc(C(C)C)cn3)c(Oc3ccccc3OC)c(OC)n2)ccn1 . ≥ 7.30
